target-entity: T1, interleukin 8 (CXCL8) (100-175: Shenandoah Biotechnology, Inc.) (UniProt P10145 28-99)
T1 construct: the antibodies tested are mouse anti-human IL-8 antibodies; also called IL-8
T1 sequence (looked up): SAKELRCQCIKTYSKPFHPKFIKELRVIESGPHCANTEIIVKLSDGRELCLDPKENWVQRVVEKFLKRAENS
assay-remarks: SPR (Biacore 8K), antigen immobilized on CM4 chip, antibody as analyte
readout-label: Kd
The reply should consist of the numeric value with the unit placed after it.

mouse anti-human IL-8 antibody (clone 166-1), original (unmodified) (Fab, V domains shown, not shown: a dimerising Fc or GST, Fab; the light entry holds only the variable domain; a His tag is implied by Ni-NTA purification but not described; also called Anti-IL-8 antibody (clone 166-1)) VH: EVKLVESGGGLVKPGGSLKLSCAASGFTFNNYAMSWVRQTPEKRLEWVASISSGGNTYYPDSVKGRFTLSRDNARNILYLQMSRLRSEDTAMYYCARDKLRLPNWYFDVWGAGTTVTVSS VL: DIVLTQSPPSLAVSLGQRATISCKASQSVDYDGDSYMNWYQQKPGQPPKVLIYGASNLESGIPARFSGSGSGTDFTLNIYPVEEEDAATYYCQQSNEDPPTFGGGTKLEIKR | 1.64 nM
R3 variant of anti-IL-8 antibody (clone 146-1) (Fab, V domains shown, not shown: a dimerising Fc or GST, Light chain positions 63, 65, 67 (Chothia) changed to Arg; Fab) VH: EVQLVESGGGLVKPGGSLKLSCAASGFTFSSYAMSWVRQTPEKRLEWVATISNGGSYTYYPDSLKGRFTISRDNAKNTLYLQMSSLRSEDTAIYYCARGITGGVYFDYWGQGTTLTVSS VL: DIQMTQSPASLSASVGETVTITCRASENIYSYLAWYQQKQGKSPHLLVYDAETLAEGVPSRFRGRGRGTQFSLKINSLQPEDFGSYYCQHHYGTPWTFGGGTKLEIKR | 5.8 nM
R5 variant of anti-IL-8 antibody (clone 146-1) (Fab, V domains shown, not shown: a dimerising Fc or GST, Light chain positions 63, 65, 67, 70, 72 (Chothia) changed to Arg; Fab) VH: EVQLVESGGGLVKPGGSLKLSCAASGFTFSSYAMSWVRQTPEKRLEWVATISNGGSYTYYPDSLKGRFTISRDNAKNTLYLQMSSLRSEDTAIYYCARGITGGVYFDYWGQGTTLTVSS VL: DIQMTQSPASLSASVGETVTITCRASENIYSYLAWYQQKQGKSPHLLVYDAETLAEGVPSRFRGRGRGTRFRLKINSLQPEDFGSYYCQHHYGTPWTFGGGTKLEIKR | 2.4 nM

Please list Kd recorded for the binder mouse anti-human IL-8 antibody (clone 146-1), original (unmodified) (Fab, V domains shown, not shown: a dimerising Fc or GST, Fab; the light entry holds only the variable domain; a His tag is implied by Ni-NTA purification but not described; also called Anti-IL-8 antibody (clone 146-1)) VH: EVQLVESGGGLVKPGGSLKLSCAASGFTFSSYAMSWVRQTPEKRLEWVATISNGGSYTYYPDSLKGRFTISRDNAKNTLYLQMSSLRSEDTAIYYCARGITGGVYFDYWGQGTTLTVSS VL: DIQMTQSPASLSASVGETVTITCRASENIYSYLAWYQQKQGKSPHLLVYDAETLAEGVPSRFSGSGSGTQFSLKINSLQPEDFGSYYCQHHYGTPWTFGGGTKLEIKR
15.3 nM
